All figures here come from PubChem BioAssay.

- METHOD: sensitizers of A549 cells to miR-34 induction, primary screen, imaging, A549 dox-inducible miR-34, nuclei and caspase counts (AID 1347080); note: test concentration not given here
- SETUP_CONDITIONS: A549 miR-34 inducible, Hoechst nuclei count, 48 h; stronger effect = lower value
// assign YES if fold change falls strictly below 0.9, else NO (ties count as NO)

{"MOLECULE": "CCCCC[C@@H](/C=C/C=C\\C/C=C\\C/C=C\\CCCC(=O)O)OO", "CLASS_ASSIGNMENT": "NO"}
{"MOLECULE": "N=C(N)c1ccc(CS(=O)(=O)F)cc1", "CLASS_ASSIGNMENT": "NO"}
{"MOLECULE": "C[N+](C)(C)CCOC(=O)CBr", "CLASS_ASSIGNMENT": "NO"}
{"MOLECULE": "OCc1cnc[nH]1", "CLASS_ASSIGNMENT": "NO"}
{"MOLECULE": "O=C1/C(=C/c2ccccc2)C[C@@]2(O)[C@H]3Cc4ccc(O)c5c4[C@@]2(CCN3CC2CC2)[C@H]1O5", "CLASS_ASSIGNMENT": "NO"}
{"MOLECULE": "COP(=S)(OC)Oc1ccc(Sc2ccc(OP(=S)(OC)OC)cc2)cc1", "CLASS_ASSIGNMENT": "YES"}
{"MOLECULE": "Cc1ccc(-n2nccn2)c(C(=O)N2CCN(c3nc4cc(Cl)ccc4o3)CCC2C)c1 (stereo not given)", "CLASS_ASSIGNMENT": "YES"}
{"MOLECULE": "C=CCN=C=S", "CLASS_ASSIGNMENT": "NO"}
{"MOLECULE": "CC1=CC(=O)C2=C(C)C[C@H](O)[C@@H]3[C@H](OC(=O)[C@H]3C)[C@@H]12", "CLASS_ASSIGNMENT": "YES"}
{"MOLECULE": "CCC1(CC)C(=O)C=CNC1=O", "CLASS_ASSIGNMENT": "YES"}
{"MOLECULE": "Cc1sc2ccccc2c1CC1=NCCN1", "CLASS_ASSIGNMENT": "NO"}
{"MOLECULE": "CCCN1CC[C@@H]2c3cc(O)ccc3CC[C@@H]21", "CLASS_ASSIGNMENT": "NO"}
{"MOLECULE": "CCCN1CCC[C@@H](c2cccc(O)c2)C1", "CLASS_ASSIGNMENT": "NO"}
{"MOLECULE": "Clc1ccc(C2CC3CCC2N3)cn1 (stereo not given)", "CLASS_ASSIGNMENT": "NO"}
{"MOLECULE": "CCOC(=O)c1cncn1[C@H](C)c1ccccc1", "CLASS_ASSIGNMENT": "NO"}
{"MOLECULE": "C[C@H]1C(=O)O[C@@H]2CCN3CC=C(COC(=O)[C@](C)(O)[C@]1(C)O)[C@H]23", "CLASS_ASSIGNMENT": "YES"}
{"MOLECULE": "C[C@]12CCC(=O)C=C1CCC1C2CC[C@@]2(C)C1CC[C@]2(C)O (stereo not given in full)", "CLASS_ASSIGNMENT": "NO"}
{"MOLECULE": "O=C(O)[C@@H]1CCN1", "CLASS_ASSIGNMENT": "NO"}
{"MOLECULE": "C[N+]1(C)[C@@H]2CC(OC(=O)C(CO)c3ccccc3)C[C@H]1[C@@H]1O[C@@H]12 (stereo not given in full)", "CLASS_ASSIGNMENT": "NO"}
{"MOLECULE": "C=C/C=C\\CC1=C[C@@H](OC(=O)[C@@H]2[C@@H](C=C(C)C)C2(C)C)CC1=O", "CLASS_ASSIGNMENT": "NO"}
{"MOLECULE": "COC[C@H]1OC(=O)c2coc3c2[C@@]1(C)C1=C(C3=O)[C@@H]2CCC(=O)[C@@]2(C)C[C@H]1OC(C)=O", "CLASS_ASSIGNMENT": "NO"}
{"MOLECULE": "C#C[C@@H]1CC2C3CCC4=C[C@@H](OC(C)=O)CCC4C3CC[C@]2(C)[C@H]1OC(C)=O (stereo not given in full)", "CLASS_ASSIGNMENT": "YES"}
{"MOLECULE": "NC(=O)COc1c(F)cc(SCCNS(=O)(=O)c2ccccc2)cc1F", "CLASS_ASSIGNMENT": "NO"}
{"MOLECULE": "O=[N+]([O-])c1ncc[nH]1", "CLASS_ASSIGNMENT": "YES"}
{"MOLECULE": "C[C@]12CCC(O)CC1=CC[C@@H]1[C@H]2CC[C@]2(C)C(=O)CC[C@@H]12 (stereo not given in full)", "CLASS_ASSIGNMENT": "YES"}
{"MOLECULE": "O=C1C=CC(=O)C=C1", "CLASS_ASSIGNMENT": "NO"}
{"MOLECULE": "Cc1nnc2n1-c1ccc(Cl)cc1C(c1ccccc1)=NC2", "CLASS_ASSIGNMENT": "NO"}
{"MOLECULE": "C=C(C)CN1CC[C@]23c4c5ccc(O)c4O[C@H]2c2[nH]c4ccccc4c2C[C@@]3(O)C1C5", "CLASS_ASSIGNMENT": "YES"}
{"MOLECULE": "NC(N)=NOCCC(N)C(=O)O (stereo not given)", "CLASS_ASSIGNMENT": "NO"}
{"MOLECULE": "NNC(N)=O", "CLASS_ASSIGNMENT": "NO"}
{"MOLECULE": "CO[C@@H]1C[C@@H](C[C@H]2CC[C@H](C)[C@H]([C@@H](C)C(=O)O)O2)O[C@]2(O[C@](C)([C@H]3CC[C@@](C)([C@@H]4O[C@@H]([C@H]5O[C@@](O)(CO)[C@H](C)C[C@@H]5C)C[C@@H]4C)O3)C[C@H]2C)[C@@H]1C", "CLASS_ASSIGNMENT": "NO"}
{"MOLECULE": "NCC(O)c1cc(O)c(O)cc1F (stereo not given)", "CLASS_ASSIGNMENT": "NO"}
{"MOLECULE": "CCOC(=O)CN1C(=O)CC(C[C@@H](O)C2C[C@@H](C)C[C@H](C)C2=O)CC1=O (stereo not given in full)", "CLASS_ASSIGNMENT": "NO"}
{"MOLECULE": "c1ccc(CC(c2ccccc2)N2CCCCC2)cc1 (stereo not given)", "CLASS_ASSIGNMENT": "NO"}
{"MOLECULE": "O=[N+]([O-])/C=C/c1ccc2c(c1)OCO2", "CLASS_ASSIGNMENT": "NO"}
